Value source: patent US20210053957A1

Parameter pest or weed control at 500 g/ha: see the listing below.
Tested on: Digitaria sanguinalis (DIGSA)
Assay: Post-emergence efficacy, glasshouse spray test
Format: in vivo
Test Settings: Digitaria sanguinalis, post-emergence, 312 h; Application Rate 500 g/Ha; evaluated after 13 days; read-out: Control of weed species after post-emergence application, DIGSA (100=total damage to plant; 0=no damage to plant)
Please respond with the number in % and leave the unit unwritten.

Below: 2 compounds and their reported pest or weed control at 500 g/ha.
O=C(O)CC[n+]1ccc(-c2cnns2)cn1 | 60
CC(CNS(=O)(=O)[O-])[n+]1ccc(-c2ncco2)cn1 (stereo not drawn) | 60

Input line: Recorded pest or weed control at 500 g/ha for Cc1coc(-c2cc[n+](CCOS(=O)(=O)[O-])nc2)n1 with Digitaria sanguinalis (DIGSA), please?
Output line: 60

* * *

Test system: Setaia fabei (SETFA)
Assay: Post-emergence efficacy, glasshouse spray test
Assay type: in vivo
Test Settings: Setaria faberi, post-emergence, 312 h; Application Rate 500 g/Ha; evaluated after 13 days; read-out: Control of weed species after post-emergence application, SETFA (100=total damage to plant; 0=no damage to plant)
Label true (1) when pest or weed control at 500 g/ha is strictly below 40%; otherwise label false (0).

Cc1cnc(-c2cc[n+](CCC(=O)O)nc2)o1 [Compound A15, 2,2,2-trifluoroacetate] | false (0)
COC(=O)CC[n+]1ccc(-c2nccs2)cn1 | false (0)
O=S(=O)([O-])CC[n+]1ccc(-c2ccno2)cn1 | false (0)
O=C(O)CC[n+]1ccc(-c2cnns2)cn1 | true (1)

Input line: Please check: pest or weed control at 500 g/ha for O=S(=O)([O-])CC(O)C[n+]1ccc(-c2ncco2)cn1 (centres unmarked) , strictly under 40% or not?
Output line: false (0)

Input line: Please check: pest or weed control at 500 g/ha for O=C(O)CC[n+]1ccc(-c2ccsc2)cn1 , strictly under 40% or not?
Output line: true (1)

Input line: Please check: pest or weed control at 500 g/ha for O=S(=O)([O-])CC[n+]1ccc(-c2ccns2)cn1 , strictly under 40% or not?
Output line: false (0)
